- Tested on: Yap1 mRNA
- testSummary: Yap1 mRNA in SCC25 cells, RNA analysis (Example 25)
- Format: cell-based, human
- appliedConditions: 1 μM, free uptake, 48 hours, RTS4814, normalized to actin-beta
quantity: Yap1 mRNA, % UTC (% UTC)
Write down the numeric answer in % UTC and omit the unit.

Field Yap1 mRNA, % UTC (Yap1 mRNA), entry 1198439 (AGTGTATGTCAGAAGA; sugar, 5-methylcytosine, phosphorothioate modifications, further chemistry not given here) [compound 1198439] : 5

Further cases:
Field Yap1 mRNA, % UTC (Yap1 mRNA), entry 1076453 (GTAATATTGCAATCTG; 3-10-3 cEt gapmer, further chemistry not given here) [compound 1076453] : 7

Field Yap1 mRNA, % UTC (Yap1 mRNA), entry 1198831 (CACTTTTACATTAGGA; chemically modified gapmer, further chemistry not given here) [compound 1198831] : 16

Field Yap1 mRNA, % UTC (Yap1 mRNA), entry 1198872 (TGTATGTCAGAAGAGT; chemically modified gapmer, further chemistry not given here) [compound 1198872] : 9

Field Yap1 mRNA, % UTC (Yap1 mRNA), entry CGCCGATAAGGTACAC (cEt gapmer, phosphorothioate backbone, further chemistry not given here) [ION 792169, reference compound] : 93
